# AC50 annotations
TARGET_ENTITY: human Adenosine A1 Receptor (AdoRA1), ADORA1 (gene 134) (UniProt P30542)
Sequence (P30542 whole entry, looked up): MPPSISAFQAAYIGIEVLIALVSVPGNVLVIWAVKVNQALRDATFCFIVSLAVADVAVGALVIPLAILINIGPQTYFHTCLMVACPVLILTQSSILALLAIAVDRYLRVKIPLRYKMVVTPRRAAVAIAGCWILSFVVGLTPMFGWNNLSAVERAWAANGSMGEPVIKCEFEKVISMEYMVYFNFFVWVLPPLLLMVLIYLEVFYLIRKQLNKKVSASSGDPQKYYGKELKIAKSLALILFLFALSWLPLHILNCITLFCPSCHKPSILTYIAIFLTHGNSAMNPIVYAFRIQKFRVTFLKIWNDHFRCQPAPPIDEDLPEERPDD
EXPERIMENT: NVS_GPCR_hAdoRA1: NovaScreen (NVS) G Protein-Coupled Receptor Assay for human Adenosine A1 Receptor (AdoRA1) (AID 2283254)
Records with an inconclusive call do not appear. Activity calls are given as the source filed them. Rule for the calls: active = hit-call score of the fitted dose curve at least 0.9, where 1 is the maximum; inconclusive = response in the unintended direction; inactive = score below 0.9.
MEASUREMENT_KIND: AC50

- CCC(=C(c1ccc(O)cc1)c1ccc(OCCN(C)C)cc1)c1ccccc1: 2.12 µM (active)
- Cc1oc(-c2ccccc2)nc1CCOc1ccc(C[C@H](Nc2ccccc2C(=O)c2ccccc2)C(=O)O)cc1: 25 µM (active)
- NC(=O)N1C(=O)C(C(=O)c2cc(Cl)cs2)c2cc(F)c(Cl)cc21 (stereo unspecified): 8.46 µM (active)
- O=C(OCCOCCOC(=O)c1ccccc1)c1ccccc1: 5.62 µM (active)
- CCCCCCCCCCCCc1ccccc1S(=O)(=O)O: 18.1 µM (active)
- CC[C@H](c1ccc(O)cc1)[C@@H](CC)c1ccc(O)cc1: 8.65 µM (active)

The measured values listed here are drawn from PubChem BioAssay (EPA / NIEHS).
